Please go through the items and note down their Kd.
SYSTEM: T1, biotinylated Avi-UPF2-MIF4GIII (UniProt Q9HAU5 761-1054, biotin on the Avi tag (BirA))
T1 construct: UPF2, third middle-domain of eukaryotic initiation factor 4G (MIF4GIII), residues 761-1054; Avi tag added by site-directed mutagenesis to UPF2-MIF4GIII; also called immobilized UPF2-MIF4GIII; source: E. coli BL21 Rosetta2(DE3), purified (Ni-NTA, TEV, reverse IMAC, ion exchange); biotinylated with BirA, SEC
T1 sequence (looked up): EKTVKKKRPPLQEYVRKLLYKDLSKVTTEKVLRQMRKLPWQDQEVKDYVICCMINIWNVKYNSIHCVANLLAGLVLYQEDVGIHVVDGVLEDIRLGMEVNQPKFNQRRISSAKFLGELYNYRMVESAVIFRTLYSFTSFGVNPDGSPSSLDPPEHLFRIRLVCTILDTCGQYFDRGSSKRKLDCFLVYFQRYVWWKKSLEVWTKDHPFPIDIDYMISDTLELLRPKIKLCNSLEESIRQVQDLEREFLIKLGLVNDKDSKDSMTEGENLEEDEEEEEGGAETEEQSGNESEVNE
TEST DETAILS: SPR; 350 RU biotinylated Avi-UPF2-MIF4GIII immobilised on an SA chip (Biacore T200); UPF3B and UPF3A constructs injected; 15°C; 300 mM NaCl, 25 mM HEPES pH 7.4, 0.25 mM TCEP, 0.05% Tween-20; global fit, 1:1 binding model
RECORDED CONDITIONS: both partners purified

The following binders have reported results that may help.
1. UPF3B-41–189 Y160D + Y167D (domain or fragment, human, UniProt Q9BZI7 41-189, looked up, UPF3B, human, residues 41-189 with Y160D and Y167D; source: E. coli BL21 Rosetta2(DE3), purified (Ni-NTA, TEV, reverse IMAC, ion exchange)) DRNKEKKEALSKVVIRRLPPTLTKEQLQEHLQPMPEHDYFEFFSNDTSLYPHMYARAYINFKNQEDIILFRDRFDGYVFLDNKGQEYPAIVEFAPFQKAAKKKTKKRDTKVGTIDDDPEDRKFLESDATDNEKMTSTPETLLEEIEAKN ... ~130 nM
2. UPF3B-41–189 F163A (domain or fragment, human, UniProt Q9BZI7 41-189, looked up, UPF3B, human, residues 41-189 with F163A; it is named in the results; source: E. coli BL21 Rosetta2(DE3), purified (Ni-NTA, TEV, reverse IMAC, ion exchange)) DRNKEKKEALSKVVIRRLPPTLTKEQLQEHLQPMPEHDYFEFFSNDTSLYPHMYARAYINFKNQEDIILFRDRFDGYVFLDNKGQEYPAIVEFAPFQKAAKKKTKKRDTKVGTIDDDPEYRKALESYATDNEKMTSTPETLLEEIEAKN ... 90 nM

Now consider a different binder.
Asked: # get_value(readout='Kd', item= UPF3B-41–189 Y160A + Y167A (domain or fragment, human, UniProt Q9BZI7 41-189, looked up, UPF3B, human, residues 41-189 with Y160A and Y167A; source: E. coli BL21 Rosetta2(DE3), purified (Ni-NTA, TEV, reverse IMAC, ion exchange)) DRNKEKKEALSKVVIRRLPPTLTKEQLQEHLQPMPEHDYFEFFSNDTSLYPHMYARAYINFKNQEDIILFRDRFDGYVFLDNKGQEYPAIVEFAPFQKAAKKKTKKRDTKVGTIDDDPEARKFLESAATDNEKMTSTPETLLEEIEAKN )
Given back: ~130 nM
